B1: Zinc finger homeobox protein 3, residues 2643 to 2698; numbered along this chain, Q15911 (parent)
chain: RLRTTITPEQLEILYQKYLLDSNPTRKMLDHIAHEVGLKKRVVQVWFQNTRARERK

Variants of: B1
METHOD_DESCRIPTION: abundance fitness (aPCA) (normalised: wild type 0, dead -1); higher = more abundant; growth selection in yeast, the domain comes from the species named
DETAILS: Homo sapiens
For each entry below, report its abundance fitness value.

Below are worked cases with known answers.
MUTANT_ID	OBSERVED
Y18R	-0.865
Y15A	-0.202
K27Y	-0.241
G37A	-0.366
P8F	0.584

// moving on: another record for abundance fitness
*Q* // abundance fitness lookup, key: "I6H"
*A* -0.332
